Entry source: patent US12351581B2

Target: FGFR2-WT (Homo sapiens)
Sequence (P21802 430-767 limits assumed): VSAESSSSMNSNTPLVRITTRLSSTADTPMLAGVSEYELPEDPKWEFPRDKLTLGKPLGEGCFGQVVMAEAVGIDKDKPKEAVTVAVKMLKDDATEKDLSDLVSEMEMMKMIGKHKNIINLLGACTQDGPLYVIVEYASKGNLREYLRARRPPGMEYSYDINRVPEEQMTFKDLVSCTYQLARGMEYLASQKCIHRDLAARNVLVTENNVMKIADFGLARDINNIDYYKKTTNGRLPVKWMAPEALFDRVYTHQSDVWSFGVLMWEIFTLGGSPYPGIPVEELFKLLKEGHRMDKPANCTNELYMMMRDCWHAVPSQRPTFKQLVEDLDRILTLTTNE
Experiment: Phosphorylated FGFR2-WT (pFGFR2-WT) cell assay, KATOIII cells
Details: 1 hour incubation, phospho FGFR2 HTRF
pIC50: −log10 of the molar value.
measurement-name: pIC50

As a guide, the following entries are already answered.
> print(dat)
                                   compound  reading
1  Cc1c(-c2cc(O[C@H](C)c3ccc(F)cn3)c3c(C#N)cnn3c2)cnn1C1CCN(C(=O)[C@@H](N)C(C)C)CC1 [Compound 44]     8.10
2  Cc1c(-c2cc(O[C@H](C)c3ccc(F)cn3)c3c(C#N)cnn3c2)cnn1[C@H]1CC[C@H](OC(=O)[C@@H](N)C(C)C)CC1 [Compound 53]     8.52
3  Cc1c(-c2cc(O[C@H](C)c3ccc(F)cn3)c3c(C#N)cnn3c2)cnn1C1CCN(C[C@H](O)CO)CC1 [Compound 39]     8.26
4  Cc1c(-c2cc(O[C@H](C)c3ccccn3)c3c(C#N)cnn3c2)cnn1C1CCNCC1 [Compound 5]     8.30

1 = Cc1c(-c2cc(O[C@H](C)c3ccc(F)cn3)c3c(C#N)cnn3c2)cnn1C1CCN(C(=O)[C@H](C)O)CC1 [Compound 41]
2 = C[C@@H](Oc1cc(-c2cnn(C3CCNCC3)c2)cn2ncc(C#N)c12)c1ncccc1F [Compound 8]
3 = C[C@@H](Oc1cc(-c2cnn(C)c2N)cn2ncc(C#N)c12)c1ccc(F)cn1 [Compound 30]
Prompt: # rank by pIC50, ascending (min first) Would you mind listing the labels in the order requested?
Completion: 3, 1, 2

---

Target: FGFR2 V564I (Homo sapiens, UniProt P21802, V564I)
Construct: biochemical assays using purified intracellular domains of the respective isoforms
Sequence (P21802 399-821 V564I limits assumed): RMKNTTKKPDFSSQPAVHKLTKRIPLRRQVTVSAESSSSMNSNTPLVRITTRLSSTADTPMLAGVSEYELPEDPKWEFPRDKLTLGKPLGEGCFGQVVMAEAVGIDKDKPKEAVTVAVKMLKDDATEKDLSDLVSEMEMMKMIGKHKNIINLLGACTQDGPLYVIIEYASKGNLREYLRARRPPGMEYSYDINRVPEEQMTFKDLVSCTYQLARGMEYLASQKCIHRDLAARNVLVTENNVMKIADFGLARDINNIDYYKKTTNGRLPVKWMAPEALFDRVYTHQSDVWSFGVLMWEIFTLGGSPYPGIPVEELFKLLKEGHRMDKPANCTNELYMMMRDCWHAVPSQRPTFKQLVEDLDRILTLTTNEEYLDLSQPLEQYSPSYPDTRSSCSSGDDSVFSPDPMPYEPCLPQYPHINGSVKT
Experiment: FGFR mutant enzyme assay (HTRF KinEASE-TK)
Settings: ATP 0.4 uM
measurement-name: IC50 (nM)

> print(dat)
                                    molecule  reading
 1  Cc1nn([C@H]2CCCNC2)c(C)c1-c1cc(O[C@H](C)c2ncccc2F)c2c(C#N)cnn2c1      5.8
 2  Cc1c(-c2cc(O[C@H](C)c3ccc(F)cn3)c3c(C#N)cnn3c2)cnn1C       11
 3  Cc1c(-c2cc(O[C@H](C)c3ccc(F)cn3)c3c(C#N)cnn3c2)nnn1[C@H]1CC[C@H](O)CC1        3
 4  C[C@@H](Oc1cc(-c2cnn(C3CCNCC3)c2)cn2ncc(C#N)c12)c1ncccc1F      0.1
 5  CC(=O)N1CCC[C@H](n2ncc(-c3cc(O[C@H](C)c4ccc(F)cn4)c4c(C#N)cnn4c3)c2C)C1        2
 6  C[C@@H](Oc1cc(-c2ccc(N3CC[C@H](O)[C@H](O)C3)nc2)cn2ncc(C#N)c12)c1ccc(F)cn1        1
 7  C[C@@H](Oc1cc(-c2cnn([C@H]3CCCNC3)c2N)cn2ncc(C#N)c12)c1ccc(F)cn1      1.5
 8  Cc1c(-c2cc(O[C@H](C)c3ccc(F)cn3)c3c(C#N)cnn3c2)cnn1C1CCN(C(=O)[C@@H](N)C(C)C)CC1      1.5
 9  Cc1c(-c2cc(O[C@H](C)c3ccc(F)cn3)c3c(C#N)cnn3c2)cnn1[C@@H]1CCCC[C@H]1O       30
10  Cc1c(-c2cc(O[C@H](C)c3ccc(F)cn3)c3c(C#N)cnn3c2)cnn1[C@H]1CCCN(C(=O)C2(O)CCC2)C1        3

A = Cc1c(-c2cc(O[C@H](C)c3ccc(F)cn3)c3c(C#N)cnn3c2)cnn1[C@H]1CCCC[C@@H]1O
B = Cc1c(-c2cc(OC(C)c3ccc(F)cn3)c3c(C#N)cnn3c2)cnn1[C@H]1CC[C@H](O)CC1 (stereo partly drawn)
Prompt: Consider A and B . Which of these has its IC50 at a higher number? Kindly give the label for the entry you pick.
Completion: B

1 = C[C@@H](Oc1cc(-c2cnn(C3CCNCC3)c2)cn2ncc(C#N)c12)c1ccccn1
2 = C[C@@H](Oc1cc(-c2ccc(N3CCC(O)CC3)nc2)cn2ncc(C#N)c12)c1ccc(F)cn1
Prompt: Quick one: lower IC50, 1 or 2 ? Kindly give the label for the entry you pick.
Completion: 1
(1: 0.24 nM, 2: 1 nM)

---

Molecular target: FGFR2 (Homo sapiens, UniProt P21802)
Construct: biochemical assays using purified intracellular domains of the respective isoforms; purchased Carna Bioscience 08-134
Sequence (P21802 399-821 limits assumed): as the sequence (P21802 399-821 V564I limits assumed) above, with I166V counted along it
Experiment: FGFR wild type enzyme assay (HTRF KinEASE-TK)
Type: biochemical
Conditions: Table 3; ATP 2 uM; read-out: FGFR2 Enz
pIC50: −log10 of the molar value.
measurement-name: pIC50

> print(dat)
                                   compound  reading
1  Cc1c(-c2cc(OC(C)c3ccc(F)cn3)c3c(C#N)cnn3c2)cnn1[C@H]1CC[C@@H](O)CC1 (stereo partly shown)     9.15

A = Cc1nn(C2CCN(C)CC2)c(C)c1-c1cc(O[C@H](C)c2ccccn2)c2c(C#N)cnn2c1
B = Cc1c(-c2cc(O[C@H](C)c3ccc(F)cn3)c3c(C#N)cnn3c2)cnn1[C@H]1CC[C@](C)(O)CC1
C = Cc1c(-c2cc(O[C@@H](C)c3ccc(F)cn3)c3c(C#N)cnn3c2)cnn1[C@H]1CC[C@H](O)CC1
Prompt: # rank by pIC50, ascending (min first) Would you mind listing the labels in the order requested?
Completion: C, A, B

---

Target: FGFR2 (Homo sapiens)
Construct: biochemical assays using purified intracellular domains of the respective isoforms; purchased Carna Bioscience 08-134
Experiment: FGFR wild type enzyme assay (HTRF KinEASE-TK)
Format: biochemical
Conditions: compound table after the examples; ATP 2 uM; read-out: Enz FGFR2
pIC50: −log10 of the molar value.
measurement-name: pIC50

As a guide, the following entries are already answered.
> print(dat)
                              smiles.record  reading
1  Cc1c(-c2cc(O[C@H](C)c3ccc(F)cn3)c3c(C#N)cnn3c2)cnn1[C@H]1CCC[C@H](O)C1     9.40
2  Cc1c(-c2cc(O[C@H](C)c3ncccc3F)c3c(C#N)cnn3c2)cnn1[C@H]1CCCNC1     9.52

a = Cc1c(-c2cc(O[C@H](C)c3ccc(F)cn3)c3c(C#N)cnn3c2)cnn1[C@H]1CC[C@H](OC(=O)[C@@H](N)C(C)C)CC1
b = Cc1c(-c2cc(O[C@H](C)c3ccc(F)cn3)c3c(C#N)cnn3c2)cnn1C1CCN(C(=O)[C@H](C)O)CC1
Prompt: Quick one: lower pIC50, a or b ? Kindly give the label for the entry you pick.
Completion: b

---

Biological target: FGFR2 (Homo sapiens, UniProt P21802)
Construct: biochemical assays using purified intracellular domains of the respective isoforms; purchased Carna Bioscience 08-134
Experiment: FGFR wild type enzyme assay (HTRF KinEASE-TK)
Type: biochemical
Conditions: compound table after the examples; ATP 2 uM; read-out: Enz FGFR2
measurement-name: IC50 (nM)

> print(dat)
                              smiles.record                           target.desc  reading
1  Cc1c(-c2cc(O[C@H](C)c3ccc(F)cn3)c3c(C#N)cnn3c2)cnn1[C@@H]1CCC[C@H](O)C1  FGFR2 (Homo sapiens, UniProt P21802)      0.4
2  Cc1c(-c2cc(O[C@H](C)c3ccc(F)cn3)c3c(C#N)cnn3c2)cnn1C1CCN(C(=O)CO)CC1  FGFR2 (Homo sapiens, UniProt P21802)      0.6

1 = Cc1nn([C@H]2CCCNC2)c(C)c1-c1cc(O[C@H](C)c2ncccc2F)c2c(C#N)cnn2c1
2 = Cc1c(-c2cc(O[C@H](C)c3ccc(F)cn3)c3c(C#N)cnn3c2)cnn1C1CCS(=O)(=O)CC1
3 = Cc1c(-c2cc(O[C@H](C)c3ccc(F)cn3)c3c(C#N)cnn3c2)cnn1C[C@H](O)CO
4 = C[C@@H](Oc1cc(-c2ccc(N3CCN(C)[C@@H](CO)C3)nc2)cn2ncc(C#N)c12)c1ccc(F)cn1
5 = Cc1c(-c2cc(O[C@H](C)c3ccc(F)cn3)c3c(C#N)cnn3c2)cnn1[C@@H]1CCCC[C@H]1O
Prompt: Please rank these compounds by IC50 in descending order. Would you mind listing the labels in the order requested?
Completion: 5, 3, 2, 1, 4

---

Target: FGFR2 N549H (Homo sapiens, UniProt P21802, N549H)
Construct: biochemical assays using purified intracellular domains of the respective isoforms
Sequence (P21802 399-821 N549H limits assumed): as the sequence (P21802 399-821 V564I limits assumed) above, with N151H, I166V counted along it
Assay: FGFR mutant enzyme assay (HTRF KinEASE-TK)
Details: ATP 0.9 uM
Description: Activity against FGFR wild type and mutant enzymes were determined in biochemical assays using purified intracellular domains of the respective isoforms using HTRF KinEASE-TK assay technology from CisBio, now PerkinElmer. (Catalogue number 62TK0PEC). Briefly test compounds were tested in 11 point 1:3 serial dilutions, typical final concentration range from 10,000 nM to 0.17 nM. […] The plates were read using a multimode reader and the emission ratio of 665 nm to 615 nm was determined. […]
measurement-name: IC50 (nM)

As a guide, the following entries are already answered.
> print(dat)
                                   molecule  measurement.name  reading
1  C[C@@H](Oc1cc(-c2cnn([C@H]3CCCNC3)c2N)cn2ncc(C#N)c12)c1ccc(F)cn1 [Compound 29]              IC50      0.6
2  CC[C@@H](Oc1cc(-c2cnn([C@H]3CC[C@H](O)CC3)c2C)cn2ncc(C#N)c12)c1ccc(F)cn1 [Compound 60]              IC50      0.5

1 = Cc1c(-c2cc(O[C@H](C)c3ncccc3F)c3c(C#N)cnn3c2)cnn1[C@H]1CCCNC1 [Compound 10]
2 = Cc1c(-c2cc(O[C@H](C)c3ccc(F)cn3)c3c(C#N)cnn3c2)cnn1[C@H]1CCC[C@@H](O)C1 [Compound 71]
Prompt: Quick one: lower IC50, 1 or 2 ? Kindly give the label for the entry you pick.
Completion: 1
